We begin with a simple list: items and their reported IC50.
molecular target: full-length beta-Catenin (Uniprot ID P35222) (Homo sapiens, UniProt P35222); construct: 10 nM full-length beta-Catenin (Uniprot ID P35222); test: Fluorescence polarization IC50 (beta-catenin / 5FAM-TCF4 10-53 competition); assay type: binding; settings: read-out: beta-Catenin FP IC50
Sequence (P35222 whole entry): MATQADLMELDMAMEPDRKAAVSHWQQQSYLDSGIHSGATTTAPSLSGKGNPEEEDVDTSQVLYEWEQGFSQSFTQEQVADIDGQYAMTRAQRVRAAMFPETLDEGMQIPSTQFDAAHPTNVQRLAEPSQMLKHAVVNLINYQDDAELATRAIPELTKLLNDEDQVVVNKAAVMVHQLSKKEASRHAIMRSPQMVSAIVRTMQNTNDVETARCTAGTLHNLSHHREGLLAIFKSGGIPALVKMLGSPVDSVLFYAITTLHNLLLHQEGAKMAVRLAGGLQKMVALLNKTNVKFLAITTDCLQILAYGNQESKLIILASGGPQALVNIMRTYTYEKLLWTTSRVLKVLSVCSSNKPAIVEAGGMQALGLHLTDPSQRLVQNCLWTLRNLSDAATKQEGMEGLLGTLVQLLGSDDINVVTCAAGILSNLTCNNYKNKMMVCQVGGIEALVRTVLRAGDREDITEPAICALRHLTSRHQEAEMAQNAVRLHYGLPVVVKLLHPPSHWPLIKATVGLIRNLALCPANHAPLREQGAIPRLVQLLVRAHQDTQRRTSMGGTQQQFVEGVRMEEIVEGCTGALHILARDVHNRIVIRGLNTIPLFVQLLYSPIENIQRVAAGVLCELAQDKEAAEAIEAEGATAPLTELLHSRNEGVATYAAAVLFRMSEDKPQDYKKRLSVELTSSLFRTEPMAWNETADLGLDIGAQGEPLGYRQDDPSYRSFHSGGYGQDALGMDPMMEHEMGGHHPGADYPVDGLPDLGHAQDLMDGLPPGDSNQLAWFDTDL
// return numeric value only (unit: µM, not printed)

Known IC50 results, listed for orientation:
* CCNC(=O)[C@H](CCC(N)=O)NC(=O)[C@H](Cc1csc2ccccc12)NC(=O)[C@H](Cc1ccccc1Cl)NC(=O)[C@]12CCN(C1)C(=O)OCCCC=CCCCC1(CCCC=CC[C@]3(CCCN3C(C)=O)C(=O)N[C@@H](CC(=O)O)C(=O)N[C@@H](CC(C)(C)C)C(=O)N1)C(=O)N[C@@H](CC(=O)O)C(=O)N[C@@H](CC(=O)O)C(=O)N[C@@H](C)C(=O)N[C@@H](C)C(=O)N[C@@H](Cc1ccccc1)C(=O)N[C@@H](CC(N)=O)C(=O)N2 (stereo partly drawn) | 0.005
* CC(=O)N1CCC[C@]12CC=CCCCC1(CCCC=CCCCOC(=O)N3CC[C@@](C(=O)N[C@@H](Cc4ccsc4)C(=O)N[C@@H](Cc4csc5ccccc45)C(=O)N[C@@H](C(N)=O)[C@H](C)O)(C3)NC(=O)[C@H](CC(N)=O)NC(=O)[C@H](Cc3ccccc3)NC(=O)[C@H](C)NC(=O)[C@H](C)NC(=O)[C@H](CN(CC(=O)O)CC(F)(F)F)NC(=O)[C@H](CC(=O)O)NC1=O)NC(=O)[C@H](CC(C)(C)C)NC(=O)[C@H](CC(=O)O)NC2=O (stereo partly drawn) [I-948] | 2.43

Prompt line: For full-length beta-Catenin (Uniprot ID P35222) (Homo sapiens, UniProt P35222), provide IC50 of CC(=O)N1CCC[C@]12CC=CCCCC1(CCCC=CCCCOC(=O)N3CC[C@@](C(=O)N[C@@H](Cc4ccccc4Cl)C(=O)N[C@@H](Cc4csc5ccccc45)C(=O)N[C@@H](CCC(N)=O)C(=O)NCCCCCCN)(C3)NC(=O)[C@H]([C@@H](C)O)NC(=O)[C@H](Cc3ccccc3)NC(=O)[C@H](C)NC(=O)[C@H](C)NC(=O)[C@H](CN(CC(=O)O)CC(F)(F)F)NC(=O)[C@H](CC(=O)O)NC1=O)NC(=O)[C@H](CC(C)(C)C)NC(=O)[C@H](CC(=O)O)NC2=O (stereo partly drawn) please.
Response line: 0.006

Prompt line: For full-length beta-Catenin (Uniprot ID P35222) (Homo sapiens, UniProt P35222), provide IC50 of CC(=O)N1CCC[C@]12CC=CCCCC1(CCCC=CCCCOC(=O)N3CC[C@@](C(=O)N[C@@H](Cc4ccsc4)C(=O)N[C@@H](Cc4csc5ccccc45)C(=O)N[C@@H](CCO)C(N)=O)(C3)NC(=O)[C@H](CC(N)=O)NC(=O)[C@H](Cc3ccccc3)NC(=O)[C@H](C)NC(=O)[C@H](C)NC(=O)[C@H](CN(CC(=O)O)CC(F)(F)F)NC(=O)[C@H](CC(=O)O)NC1=O)NC(=O)[C@H](CC(C)(C)C)NC(=O)[C@H](CC(=O)O)NC2=O (stereo partly drawn) [I-951] please.
Response line: 1.47

Prompt line: For full-length beta-Catenin (Uniprot ID P35222) (Homo sapiens, UniProt P35222), provide IC50 of CC(=O)N1CCC[C@]12CC=CCCCC1(CCCC=CCCCOC(=O)N3CC[C@@](C(=O)N[C@@H](Cc4ccccc4Cl)C(=O)N[C@@H](Cc4csc5ccccc45)C(=O)N[C@@H](CO)C(N)=O)(C3)NC(=O)[C@H](CC(N)=O)NC(=O)[C@H](Cc3ccccc3)NC(=O)[C@H](C)NC(=O)[C@H](C)NC(=O)[C@H](CC(=O)O)NC(=O)[C@H](CC(=O)O)NC1=O)NC(=O)[C@H](Cc1ccccc1)NC(=O)[C@H](CC(=O)O)NC2=O (stereo partly drawn) please.
Response line: 0.005
